# test.summary: Clearance in C57BL/6 mouse at 2 mg/kg, iv
# Type: ADME, organism-based
# Design: dose 2 mg/kg, route intravenous
# experimental.context: in vivo
quantity: clearance
Report as: number unit

Value of clearance reported for the compound CC(C)[C@H](NS(=O)(=O)c1ccc2c(c1)oc1ccc(-c3nccs3)cc12)C(=O)O is 5 mL/min/kg

* * *

# test.summary: Oral bioavailability in C57BL/6 mouse at 10 mg/kg
# Type: ADME, organism-based
# experimental.context: in vivo
quantity: bioavailability (%)
Just the number in %, nothing appended.

Value of bioavailability reported for the compound CC(C)[C@H](NS(=O)(=O)c1ccc2c(c1)oc1ccc(-c3nccs3)cc12)C(=O)O is 63

* * *

Consider the following compounds; for each one, report its Ratio IC50.
# Species on record: Homo sapiens
# test.summary: Selectivity ratio of IC50 for human MMP-8 to IC50 for human MMP-12
Please reply with the number alone, leaving off any unit.

Value of Ratio IC50 reported for the compound CC(C)[C@H](NS(=O)(=O)c1ccc2c(c1)oc1ccc(N3CCOCC3)cc12)C(=O)O is 3

Value of Ratio IC50 reported for the compound CC(C)c1nc(-c2ccc3oc4cc(S(=O)(=O)N[C@H](C(=O)O)C(C)C)ccc4c3c2)no1 is 19

Value of Ratio IC50 reported for the compound COCc1nc(-c2ccc3oc4cc(S(=O)(=O)N[C@H](C(=O)O)C(C)C)ccc4c3c2)no1 is 10

Value of Ratio IC50 reported for the compound CC(C)[C@H](NS(=O)(=O)c1ccc2c(c1)oc1ccc(-n3cccn3)cc12)C(=O)O is 15

Value of Ratio IC50 reported for the compound CC(C)[C@H](NS(=O)(=O)c1ccc2c(c1)oc1ccc(-c3noc(C4CC4)n3)cc12)C(=O)O is 56

Value of Ratio IC50 reported for the compound CC(C)[C@H](NS(=O)(=O)c1ccc2c(c1)oc1ccc(-n3ccc(C(F)(F)F)n3)cc12)C(=O)O is 44

Value of Ratio IC50 reported for the compound CC(C)[C@H](NS(=O)(=O)c1ccc2c(c1)oc1ccc(N3CCNCC3)cc12)C(=O)O is 2
